Tested on: Hirsutella rhossiliensis
Settings: named vitamin excluded; isolate ATCC46487; 5 weeks
measurement_kind: Sporulation 10^3/cm^2, on agar

compound=O[C@H]1[C@H](O)[C@@H](O)[C@H](O)[C@@H](O)[C@H]1O result="41.9 10^3/cm^2"
compound=Cc1ncc(C[n+]2csc(CCO)c2C)c(N)n1 result="30.1 10^3/cm^2"
compound=O=C(O)c1cccnc1 result="30.1 10^3/cm^2"
compound=Cc1ncc(CO)c(CO)c1O result="31.1 10^3/cm^2"
compound=O=C(O)CCCC[C@@H]1SC[C@@H]2NC(=O)N[C@@H]21 result="29.5 10^3/cm^2"
compound=Cc1cc2nc3c(=O)[nH]c(=O)nc-3n(C[C@H](O)[C@H](O)[C@H](O)CO)c2cc1C result="30.6 10^3/cm^2"
compound=Nc1nc2ncc(CNc3ccc(C(=O)N[C@@H](CCC(=O)O)C(=O)O)cc3)nc2c(=O)[nH]1 result="59.7 10^3/cm^2"
compound="CC(C)(CO)C(O)C(=O)NCCC(=O)O (racemic)" result="28.6 10^3/cm^2"
compound=Nc1ccc(C(=O)O)cc1 result="29.9 10^3/cm^2"

* * *

Each entry below lists one item and its recorded Sporulation 10^3/cm^2, on agar value.
System: Hirsutella rhossiliensis
Test: Effect of carbon source on growth, sporulation and spore germination
Details: carbon source; isolate ATCC46487; 5 weeks
measurement_kind: Sporulation 10^3/cm^2, on agar

compound=OC[C@@H](O)[C@@H](O)[C@H](O)[C@@H](O)CO result="64.7 10^3/cm^2"
compound="O=C[C@@H](O)[C@H](O)[C@H](O)CO [D-(−)-arabinose]" result="22.3 10^3/cm^2"
compound="O=C[C@H](O)[C@@H](O)[C@@H](O)[C@H](O)CO [D(+)galactose]" result="2.8 10^3/cm^2"

* * *

Each entry below lists one item and its recorded Growth rate mm-in-diam, on agar value.
Tested on: Hirsutella rhossiliensis
Conditions: named vitamin excluded from medium with all other vitamins; isolate ATCC46487; 5 weeks
measurement_kind: Growth rate mm-in-diam, on agar (mm-in-diam)

smiles_string=O[C@H]1[C@H](O)[C@@H](O)[C@H](O)[C@@H](O)[C@H]1O numeric_value=40.8
smiles_string=Cc1ncc(C[n+]2csc(CCO)c2C)c(N)n1 numeric_value=38.5
smiles_string=O=C(O)c1cccnc1 numeric_value=40.5
smiles_string=O=C(O)CCCC[C@@H]1SC[C@@H]2NC(=O)N[C@@H]21 numeric_value=39.7
smiles_string=Cc1ncc(CO)c(CO)c1O numeric_value=40.5

* * *

Each entry below lists one item and its recorded Growth mm-in-diam, on agar value.
System: Hirsutella rhossiliensis
Assay: Effect of carbon source on growth, sporulation and spore germination
Conditions: carbon source 4 g/liter carbon; isolate ATCC46487; 5 weeks
measurement_kind: Growth mm-in-diam, on agar (mm-in-diam)

compound="O=C[C@H](O)[C@@H](O)[C@H](O)CO [D(+)xylose]" measurement_kind="Growth mm-in-diam, on agar" numeric_value=0.0
compound="O=C[C@H](O)[C@@H](O)[C@@H](O)[C@H](O)CO [D(+)galactose]" measurement_kind="Growth mm-in-diam, on agar" numeric_value=25.0
compound=OC[C@@H](O)[C@@H](O)[C@H](O)[C@H](O)CO measurement_kind="Growth mm-in-diam, on agar" numeric_value=29.5
compound="O.OC[C@H]1O[C@@H](O[C@H]2[C@H](O)[C@@H](O)[C@@H](O)O[C@@H]2CO)[C@H](O)[C@@H](O)[C@H]1O [a-lactose monohydrate]" measurement_kind="Growth mm-in-diam, on agar" numeric_value=35.8
compound="O=C[C@H](O)[C@@H](O)[C@H](O)[C@H](O)CO [D-(+)-glucose]" measurement_kind="Growth mm-in-diam, on agar" numeric_value=28.3
compound=O=C(O)CC(O)(CC(=O)O)C(=O)O measurement_kind="Growth mm-in-diam, on agar" numeric_value=11.3
compound=OC[C@H]1O[C@@](CO)(O[C@H]2O[C@H](CO)[C@@H](O)[C@H](O)[C@H]2O)[C@@H](O)[C@@H]1O measurement_kind="Growth mm-in-diam, on agar" numeric_value=39.5
compound="O=C(CO)[C@@H](O)[C@H](O)[C@@H](O)CO [L-(−)-sorbose]" measurement_kind="Growth mm-in-diam, on agar" numeric_value=7.8
